# key: entry, value: PET hydrolysis
Assay: PET hydrolysis, aromatic products released after 48 h (umol product/mg enzyme); higher = more PET depolymerization activity
Details: substrate: cryPow; 40 °C; pH 7.5

{"columns": ["Construct Sequence", "PET hydrolysis"],
 "data": [
  ["AADNPYQRGPDPTPASVSANRGTFATTQVAVAAGNGFGGGVIYYPTDTSQGQFGAIAVVPGYTATWAAEGAWMGHWLASFGFVVIGIDTNNRNDWDTARGTQLLAALDYLTQRSSVRDRVDATRTAVMGHSMGGGGAASASLQRPSLKASIGLAPASFSQNLTTTRVPTMLLSGQNDTTITPASVVNLYNGIPASVEKAYLELSGAGHGFPTSNNSTMMRNVIPWFKVFVDSDTRYTQFLCPLANWSGIRTYQSTCPLVPSTPPTSTTTSTTTSTTTSTTTTTTPQPVGACNATYRTTNSWPGGYQGEVTVTAGESGVNGWTTRWTLGSGQTVTQVWNGTLTVDGSTASVRNAAYNGSLPAGGSAAFGFIGGGTPPTSLTCTSP [ESM023]", 5],
  ["ADNPYERGPAPTEASVEAPRGPYAVSETTVSPLAVTGFGGGTVYYPTSTADGTFGAIAVSPGYTGTQSSIAWLGPRLASQGFVVFTIDTLTTLDQPDSRGRQLLAALDYLTQKSSVRGRIDSTRLGVMGHSMGGGGSLEAAKSRPSLQAAIPLTPWNLDKTWPEVATPTLIFGADGDTIAPVATHAEPFYTSLPASLDRAYLELNGATHFTPNTSNTTIAKYSIAWLKRFIDDDTRYEQFLCPLPRPGLTIEEYRGNCPHTS [TEP117]", "< 3"],
  ["AGNPYQRGPDPTLASVAASRGTFATAQVSVPAGNGFNGGTIYYPTDSSQGTWGAVAIVPGYTALFANEEAWMGPWLASFGFVVIGIETNSRTDFDTARGTQLLAALDYLTQKSPVRDRVDSARLGVIGHSMGGGGVVYATEHRPSLKAAVALAPFSPSQDMSTDHVPTMVMGGQNDTVVTPSYLDGLYATMPASTQSDFVQLAGADHVAYTHPNTTEMRLLIPWLKIFLDDDTRYTQFLCPLMDSTGVSAYHSKCPYVPPGGSTSTPTPTPTITPTPPPSGACSATYRTVNSWSGGYQGEVTVTAGDAAINGWTVRWNLGGGQTVTQVWNGTLSTSGSTATVTNASYNGSLQASASTTFGFLANGTPSTPAITCTSP [TEP114]", "< 3"],
  ["GTTASATTVSGTQAAAAQEYRRGPDPTAQSVEAATGPFAIQQTSVPAGNGFGGGTIYYPTDTSQGTFGAIAISPGWTEDQSAIAWLGPKLASNGFVVMTINNNNAFLDFPDARGTQLLAALDSLTGQSPVAGRIDKNRLAVAGHSMGGGGALRAAATRPEIQAAIPLTPWHLNQDWSSVRVPTLIVGGETDIIASVGAHSEPFYESLTNAPERAYLEMEGQGHFVTNSANPTVGRYVLSWLKRYVDNDTRYEQFLCPAPAPSSVISEYRDSCPGS [DP018]", "< 3"],
  ["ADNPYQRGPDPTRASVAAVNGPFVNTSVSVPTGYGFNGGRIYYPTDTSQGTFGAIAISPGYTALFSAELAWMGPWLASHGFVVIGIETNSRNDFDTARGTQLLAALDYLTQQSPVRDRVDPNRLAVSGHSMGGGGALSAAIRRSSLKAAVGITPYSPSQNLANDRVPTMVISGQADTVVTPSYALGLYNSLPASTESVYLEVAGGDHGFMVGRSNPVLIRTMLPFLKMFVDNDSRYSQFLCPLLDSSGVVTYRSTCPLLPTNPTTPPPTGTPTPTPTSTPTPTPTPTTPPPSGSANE [ESM091]", "< 3"],
  ["AEPATIHGPAPTEESITAPTGPFEIDRETVPRSTVEGFGGGTIYYPTDTSEGTFSAVAIAPGYTAGQETLAWLGPRLASQGFVVFTIDTITTSDRPDARAEQLAASLDYLTGSSEVQDRIDPARLGVMGHSMGGGGALQAALDDPGLKAAIPMTPWNTVKDFSGVRTPTMIIGAQNDTVAPVAQHSEPFYESLPDDPGKAYLELAGASHFAPNRDDTTIAKSSIAWLKRFLDDDTRYDRFLCPPPQDPEISDYRATCPY [DP023]", "< 3"],
  ["MAADNPYQRGPNPTSASVAASRGTFATAELSVPRGNGFGGGKIYYPTDTTQGTFGAIAIVPGYTATWAAEGAWMGHWLASFGFVVIGIDTNSRNDNDTARGTQLLAALDYLTQRSSVRGRVDAKRLAVMGHSMGGGGALVAARQRPSLKAAVGLAPFKPSGPPSADRVPTMVIAGQRDGTVTPSYVDGLYRAIPAGTEKAYLEFAGAGHAFPTRPNPLQMRLVIPWLKSFTDHDTRYHQFLCPLKDRTGVTAYRSTCPLVAPGARD [TEP041]", "< 3"],
  ["ADNPYQRGPAPTNTSIEATRGTYAVSTKTISALSARGFGGGTIYYPTSTADGTFGVVAISPGYTASQSTIAWLGPRLASFGFVVVTIDTTTRYDQPTSRGSQLLAALDQAIGDSTVGPRIDATRQAVVGHSMGGGGTLEAAKTRRSLEAAVPLTGWNLDKTWPEVEAATLVIGAQNDTVAPTTSHSIPFYNSLSGAERKAYLELRGASHFAPVTSNTTIAKHTLSWLKRYVDDDTRYEQFISPGPSTAIGSPVSDYRVN [DP022]", "< 3"],
  ["CATAGSALVSAPSLSGDGSYEVQTYTDFPDVPEFGAATIYYPVGASEPMGGVAIAPGFTEEQRHIAWWGPRLASHGYAVLVLDTNDRRERPDARADALIAGVTLLRAEGRRRGSPLFGRIDAAKMAIMGHSMGGGGALLAADEHSDLIRAAIPFTPWEPETDLRGISAPTLVLAGAADRVAEVEGHAWRHFSMIPESTPKVYMEIAGGDHYIADTTRGMDLATVGRYAIAWLKLYVDGDEQYRDLIYGEIPPADAAKFSRYVVNP [TEP157]", "< 3"],
  ["QYQKGPDPTVAGLERDGTFAIRTTTVSRLSASGFGGGTIYYPTATGSYGVVAVSPGFTAYQSSISWIGSRLASHGFVVITIDTNTTSDQPDSRARQLKAALDKVVSLASSRTNVLYGKVDSSRLAVAGHSMGGGGSLAAARDYPSLKASVPLAPWHTTKSFSTVRVPTLIVGADGDTVASVTSHSIPFYTSIPSSTPKGYLELNNEDHFFPQDSGEYGLVGKYMISWFKRFVDSDTRYSPFLCGAPHQTQIANTLRVSDSRTNCPY [DP038]", 59]
]}
